Catalogue of TGI values
Tested on: OVCAR-8 ovarian
Test: NCI tumour cell line growth inhibition, 48 h
experimental-endpoint: TGI (µM)

- compound: "COc1cc2c3c(n(CCCN4CCN(C)CC4)c(=O)c2cc1OC)-c1cc2c(cc1C3=O)OCO2"
  units-of-measure: "µM"
  readout-relation: "="
  reported-result: 46.5
- compound: "COc1ccc(CNc2nc(NCc3ccc(OC)cc3)nc(Nc3ccccc3)n2)cc1"
  units-of-measure: "µM"
  readout-relation: ">"
  reported-result: 100
- compound: "NC(=O)c1csc(C2C=CC(CO)O2)n1 (stereo not given)"
  units-of-measure: "µM"
  readout-relation: ">"
  reported-result: 100
- compound: "COc1cc(/C=C/C(=O)c2cc(F)c(Cl)cc2Cl)cc(OC)c1OC"
  units-of-measure: "µM"
  readout-relation: "="
  reported-result: 33.6
- compound: "CC(CN)[C@@H]1CC[C@]2(CO)CC[C@]3(C)[C@H](CC[C@@H]4[C@@]5(C)CCC(NCCO)C(C)(C)[C@@H]5CC[C@]43C)[C@@H]12 (stereo not given in full)"
  units-of-measure: "µM"
  readout-relation: "="
  reported-result: 3.28
- compound: "Cc1cccc2sc(NC(=O)c3cc([N+](=O)[O-])ccc3Cl)nc12"
  units-of-measure: "µM"
  readout-relation: "="
  reported-result: 9.95
- compound: "C=CCNC1=C(C(=O)OCC)C(=O)CO1"
  units-of-measure: "µM"
  readout-relation: ">"
  reported-result: 100
- compound: "Cn1ccc(=Nc2ccc(NC(=O)c3ccc(N=c4ccn(C)c5ccc([N+](=O)[O-])cc45)cc3)cc2)cc1"
  units-of-measure: "µM"
  readout-relation: ">"
  reported-result: 100
- compound: "C=C(CN(CC(=C)C(=O)c1ccccc1)C(C)(C)C)C(=O)c1ccccc1"
  units-of-measure: "µM"
  readout-relation: "="
  reported-result: 67.9
- compound: "COC1=CC(=O)C(O)=C(C[C@@]2(C)[C@@H]3CCC[C@H](COC(=O)CCCCCNC(=O)OC(C)(C)C)[C@@]3(C)CC[C@@H]2C)C1=O"
  units-of-measure: "µM"
  readout-relation: ">"
  reported-result: 10

---

Tested on: HS 578T breast
Test: NCI tumour cell line growth inhibition, 48 h; in the data active = GI50 below about 0.43 µM; inactive = the rest
Classes used: true (1) = active, false (0) = inactive

- compound: "C/C=C(\\C)C(=O)O[C@@H]1C(O)[C@H]2OC(COC(=O)CCC(=O)CCCCCC[C@H](CCCCC)O[C@@H]3OC(C)[C@H](OC(C)=O)C(O)[C@H]3O2)[C@H]1OC(=O)/C=C/c1ccccc1 (some centres not stated)"
  answer-label: "true (1)"
- compound: "Cc1cc2c(c3oc(C(O)(CO)C4CO4)cc(=O)c13)C(=O)c1c(O)cccc1C2=O (configuration not stated)"
  answer-label: "true (1)"
- compound: "COc1cc2c3c(n(CCCN4CCN(C)CC4)c(=O)c2cc1OC)-c1cc2c(cc1C3=O)OCO2"
  answer-label: "false (0)"
- compound: "COC(=O)[C@]12CC[C@@H](C)[C@H](C)[C@@H]1C1=CC[C@@H]3[C@@]4(C)C(C=O)=C[C@@](C)(COC(C)=O)[C@@H]4[C@H](O)C[C@@]3(C)[C@]1(C)CC2"
  answer-label: "false (0)"
- compound: "COc1ncc(-c2nc3c(n2C(C)C)[C@H](c2ccc(Cl)cc2)N(c2cc(Cl)cn(C)c2=O)C3=O)c(OC)n1"
  answer-label: "false (0)"
- compound: "COc1ccc(C2NCCc3c2[nH]c2ccccc32)cc1CN1CCN(c2ccc(F)cc2)CC1 (configuration not stated)"
  answer-label: "false (0)"
- compound: "O=C1c2ccccc2S(=O)(=O)N1CSC(=S)N1CCCC1"
  answer-label: "false (0)"
- compound: "COc1cc2c3c(n(CCN)c(=O)c2cc1OC)-c1cc2c(cc1C3=O)OCO2"
  answer-label: "false (0)"
- compound: "COc1cc2cc(Oc3ccc(NC(=O)Nc4ccccc4)cc3)c(C)nc2cc1OCCN1CCCCC1"
  answer-label: "false (0)"
- compound: "C=C(CN1CCN(c2cccc(C(F)(F)F)c2)CC1)c1ccc(C(=O)Nc2ccccc2N)cc1"
  answer-label: "false (0)"
- compound: "CCOC(=O)/C=C1\\SC(=Nc2ccc(C#N)cc2)N(CCN2C(=O)/C(=C/C(=O)OCC)SC2=Nc2ccc(C#N)cc2)C1=O"
  answer-label: "false (0)"
- compound: "O=C(Oc1ccc([N+](=O)[O-])cc1)N1CCN(Cc2cccc(Oc3ccccc3)c2)CC1"
  answer-label: "false (0)"

---

System: HL-60(TB) leukemia
Assay: NCI tumour cell line growth inhibition, 48 h
Attribute: TGI

- compound: "COc1cc2c3c(n(CCCN4CCN(C)CC4)c(=O)c2cc1OC)-c1cc2c(cc1C3=O)OCO2"
  units-of-measure: "µM"
  readout-relation: "="
  TGI: 57.6
- compound: "CCOC(=O)/C=C1\\SC(=Nc2ccc(C#N)cc2)N(CCN2C(=O)/C(=C/C(=O)OCC)SC2=Nc2ccc(C#N)cc2)C1=O"
  units-of-measure: "µM"
  readout-relation: "="
  TGI: 25.6
- compound: "COC(=O)C1OC(O[C@H]2CC[C@]3(C)[C@H]4CC=C5[C@@H]6CC(C)(C)CC[C@]6(C(=O)OC)[C@H](O)C[C@@]5(C)[C@]4(C)CC[C@H]3C2(C)C)C(O)C(O)C1O (some centres undefined)"
  units-of-measure: "µM"
  readout-relation: "="
  TGI: 13.7
- compound: "CCCCn1c2c(c3ccccc3c1=O)C(=O)c1ccccc1-2"
  units-of-measure: "µM"
  readout-relation: ">"
  TGI: 100

---

System: UACC-62 melanoma
Assay: NCI tumour cell line growth inhibition, 48 h
We begin with a simple list: items and their reported TGI.

- molecule: "CCOC(=O)CCC(NC(=O)c1ccc(CNc2nc3cc(N)cc(N)c3nc2-c2ccccc2)cc1)C(=O)OCC (configuration not stated)"
  TGI: "> 100 µM"
- molecule: "O=c1c2cc(Br)ccc2oc2nc3n(c(=O)c12)CCCS3"
  TGI: "> 100 µM"
- molecule: "COC(=O)c1ccc2n1C1CC3CC(CC2C3)C1"
  TGI: "> 100 µM"
- molecule: "O=S(=O)(O)CCS"
  TGI: "> 100 µM"
- molecule: "COc1cc2cc(Oc3ccc(NC(=O)Nc4ccccc4)cc3)c(C)nc2cc1OCCN1CCCCC1"
  TGI: "11 µM"
- molecule: "C/C(=N\\NC(=O)CC(=O)Nc1ccc(Cl)cc1)c1cc2ccccc2oc1=O"
  TGI: "> 100 µM"
- molecule: "OC1C(O)C(O)C(O)C(O)C1O (configuration not stated)"
  TGI: "> 1000 µM"
- molecule: "CC[N+](CC)=c1ccc2nc3c(cc(NCc4ccccc4)c4ccccc43)oc-2c1"
  TGI: "2.52 µM"
- molecule: "Cc1cc(O)c2c(c1)C(=O)c1cc(O)cc(O)c1C2=O"
  TGI: "38.1 µM"
- molecule: "COC1(OC)N=C(N)C2(C#N)C(C)CC(=O)N(N(C)C)C12C#N (configuration not stated)"
  TGI: "> 100 µM"
- molecule: "CCOC(OCC)C(CC)[Se]c1ccccc1[N+](=O)[O-] (configuration not stated)"
  TGI: "> 56.2 µM"
- molecule: "O=C1CC(Br)c2c(Cl)sc(Cl)c21 (configuration not stated)"
  TGI: "25.1 µM"
- molecule: "CC(=O)O[C@H]1[C@@H]2[C@@H]3[C@@H](C[C@H]1C)[C@@H](C)CO[C@@]1(C)CC/C=C(/C)C[C@@H]2O[C@@H]31"
  TGI: "> 100 µM"
- molecule: "Oc1[nH]c2ccccc2c1N=NC1=NCCCCN1"
  TGI: "> 100 µM"
- molecule: "CC(=O)Oc1ccn2nc(C)c(Br)c2c1Br"
  TGI: "37.5 µM"
- molecule: "CCC(=O)OCc1ccc2oc(=O)c(C(=O)Oc3cncc(Cl)c3)cc2c1"
  TGI: "> 100 µM"
- molecule: "COC(=O)C1=NN2c3ccccc3C(=O)OCCC2C1 (configuration not stated)"
  TGI: "> 100 µM"

---

Tested on: SF-539 CNS
Test: NCI tumour cell line growth inhibition, 48 h

- smiles-notation: "COc1cc(/C=C/C(=O)c2cc(F)c(Cl)cc2Cl)cc(OC)c1OC"
  TGI: "> 100 µM"
- smiles-notation: "COc1ccc(CNc2nc(NCc3ccc(OC)cc3)nc(Nc3ccccc3)n2)cc1"
  TGI: "> 100 µM"
- smiles-notation: "Cc1ccc(S(=O)(=O)Oc2ccc3c4c(c(=O)oc3c2)CCCCC4)cc1"
  TGI: "> 100 µM"
- smiles-notation: "O=C1c2ccccc2S(=O)(=O)N1CSC(=S)N1CCCC1"
  TGI: "> 100 µM"
- smiles-notation: "COC(=O)c1ccc2n1C1CC3CC(CC2C3)C1"
  TGI: "> 100 µM"
- smiles-notation: "CCCCCCCCOc1ccc(/C=N/Nc2cc(C)nc3ccc(Cl)cc23)cc1"
  TGI: "3.29 µM"
